Test system: L6-myotubes
Assay: Measurement of intracellular cAMP levels in differentiated L6-myotubes (Biological Example 3)
Type: cell-based
Settings: 0.25 h, intracellular cAMP in differentiated L6-myotubes; compound at 10 μM, activity relative to isoproterenol at 10 μM
Emax at 10 µM values by entry
readout-label: Emax at 10 µM

> print(dat)
                               given.smiles  measured.value
1  CC(=O)N[C@H]1CC[C@H](CC(C)(C)NC[C@@H](O)c2cccc(C#N)n2)CC1           < 25%
2  CC(C)(C[C@H]1CC[C@H](NC(=O)c2ccccc2)CC1)NC[C@H](O)c1cccc(F)c1           > 75%
3   CC12CC(C1)[C@H]([C@@H](O)c1cncc(F)c1)N2           < 25%
4  CCS(=O)(=O)N[C@H]1CC[C@H](CC(C)(C)NC[C@H](O)c2cncc(F)c2)CC1           < 25%
5  COc1ccc(C[C@@H]2CC[C@H]([C@@H](O)c3cncc(F)c3)N2)cc1           < 25%
6  O[C@@H](CNCCC[C@H]1CC[C@@H](O)CC1)c1cncc(F)c1           < 25%
7     CC1(C)CC[C@H]([C@H](O)c2cccc(N)c2F)N1           < 25%
8  COc1ccc(C[C@@H]2CC[C@H]([C@H](O)c3cccc(F)c3)N2)cc1       25 to 50%
